tgt: BACE1 (HTRF long substrate and FRET short substrate assays of Example 9D)
measurementNotes: cell-based or functional assay
This listing pairs binders with measured EC50, FRET short substrate.
Express the result in nM but write the number alone.

Query: Provide measured EC50, FRET short substrate value, entry: 5572 (antibody, V domains shown, anti-BACE1 IgG) VH: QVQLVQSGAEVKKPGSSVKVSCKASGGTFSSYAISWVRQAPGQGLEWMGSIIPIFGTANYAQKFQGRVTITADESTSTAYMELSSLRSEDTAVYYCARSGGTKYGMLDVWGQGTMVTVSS VL: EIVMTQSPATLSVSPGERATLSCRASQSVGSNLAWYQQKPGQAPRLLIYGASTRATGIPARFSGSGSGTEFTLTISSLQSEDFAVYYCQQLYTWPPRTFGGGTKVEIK
Response: 15.9

Query: Provide measured EC50, FRET short substrate value, entry: 5884 (antibody, V domains shown, anti-BACE1 IgG) VH: QVQLVQSGAEVKKPGSSVKVSCKASGGTFSGYGISWVRQAPGQGLEWMGNIIPGFGTANYAQKFQGRVTITADESTSTAYMELSSLRSEDTAVYYCARSGGTKYGMLDVWGQGTMVTVSS VL: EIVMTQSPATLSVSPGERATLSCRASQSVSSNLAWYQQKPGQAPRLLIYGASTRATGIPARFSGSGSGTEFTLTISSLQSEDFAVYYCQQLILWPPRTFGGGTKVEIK
Response: 0.478

Query: Provide measured EC50, FRET short substrate value, entry: 5543 (antibody, V domains shown) VH: QLQLQESGPGLVKPSETLSLTCTVSGGSISSSSYYWGWIRQPPGKGLEWIGSIYYSGSTYYNPSLKSRVTISVDTSKNQFSLKLSSVTAADTAVYYCARVGHGISYFDLWGRGTLVTVSS VL: EIVLTQSPATLSLSPGERATLSCRASQSVSSYLAWYQQKPGQAPRLLIYDASNRATGIPARFSGSGSGTDFTLTISSLEPEDFAVYYCQQAYVWPPRTFGGGTKVEIK
Response: 9.11

Query: Provide measured EC50, FRET short substrate value, entry: 5878 (antibody, V domains shown, anti-BACE1 IgG) VH: EVQLLESGGGLVQPGGSLRLSCAASGFTFSSYAMSWVRQAPGKGLEWVSAISGSGISTPYADSVKGRFTISRDNSKNTLYLQMNSLRAEDTAVYYCAKGAGHGSYVKGWFDPWGQGTLVTVSS VL: EIVLTQSPATLSLSPGERATLSCRASQSVSSYLAWYQQKPGQAPRLLIYDASNRATGIPARFSGSGSGTDFTLTISSLEPEDFAVYYCQQSVNFPFTFGGGTKVEIK
Response: 24.3
